Overview of recorded inhibition of aggregation for various molecules
method notes: reduction of polyQ htt aggregates in cells – imaging, exon1htt(103Q)mCFP cells, high-content imaging, primary screen (AID 483);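 note: compound exposure lasted 3 days before fixation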
applied conditions: exon1htt(103Q)mCFP cell line, aggregate imaging, at 2 µM; active compounds read high
readout kind: inhibition of aggregation (%)

>>> measured("Cc1ccccc1-c1nc(CS(=O)(=O)CC(=O)NCc2ccc3c(c2)OCO3)c(C)o1")
-60.8
>>> measured("Cc1cc(C)n(C2=NS(=O)(=O)c3ccccc32)n1")
7.1
>>> measured("CN(C)c1ccc(NC(=O)c2ccncc2)c2ccccc12")
6.2
>>> measured("O=C(NCc1cccnc1)c1ccccn1")
-7.8
>>> measured("Cc1ccc(C(=O)N2CCCC(c3nc4c(nnn4Cc4ccccc4)c(=O)[nH]3)C2)cc1 (stereo not drawn)")
-2.8
>>> measured("Cc1ccc(C2c3sc(=O)[nH]c3SC3C(=O)NC(=O)C32)cc1 (stereo not drawn)")
11.3
>>> measured("CCN(CC)CCCN1C(=O)C(O)=C(C(=O)c2ccco2)C1c1ccc(C)o1 (stereo not drawn)")
-17.3
>>> measured("Cc1cccc(C2c3c(n(C)c(=O)n(C)c3=O)N=C3c4ccccc4C(=O)C32)c1 (stereo not drawn)")
6.9
>>> measured("Cc1ccc(C(C(=O)NC2CCCCC2)N(C(=O)c2csnn2)C2CCCC2)o1 (stereo not drawn)")
-9.5
>>> measured("O=C(Nc1nc(-c2cccs2)cs1)c1cccc(S(=O)(=O)N2CCCCC2)c1")
-5.4
>>> measured("O=C(NCc1ccc2c(c1)OCO2)C1CCCN(S(=O)(=O)c2cccnc2)C1 (stereo not drawn)")
-1.4
>>> measured("CCOC(=O)Cc1ccc(NS(=O)(=O)c2ccc(SC)cc2)cc1")
-3.4
>>> measured("O=S(=O)(c1cccc(-c2nnco2)c1)N1CCCC1")
-4.5
>>> measured("FC(F)(F)c1nnc2sc(-c3cccs3)nn12")
-16.2
>>> measured("Cc1ccc(S(=O)(=O)NCCN2CCOCC2)cc1C")
21.7
>>> measured("CCN(CCCNS(=O)(=O)c1ccc2c(c1)oc(=O)n2C)c1cccc(C)c1")
-22.6
>>> measured("CCCSc1nc(N)c(C#N)c(-c2ccc(C)cc2)c1C#N")
-10.3
>>> measured("CC(C)Cn1c(CN2CCCCC2C)nc2c1c(=O)n(C)c(=O)n2C (stereo not drawn)")
12.5
>>> measured("CC(C)Cc1nnc(NS(=O)(=O)c2ccc(Cl)cc2)s1")
-9.3
>>> measured("Cc1cccc(C2CC(c3ccc(Cl)cc3)Nc3nc(N)nn32)c1 (stereo not drawn)")
18.5
>>> measured("Cc1cc2cc(CCNC(=O)CC(C)C)c(=O)[nH]c2cc1C")
15.1
>>> measured("c1cc(-c2nc3ccccc3o2)nc(-c2nc3ccccc3o2)c1")
-10.7
>>> measured("COC(=O)c1cccc(NC(=O)CSc2nnc(COc3ccc(C#N)cc3)n2-c2ccccc2)c1")
-5.1
